These measurements were taken from patent US4436751A.

tested on: Bacillus subtilis 6633; assay: Human bacteria MIC, nutrient agar with chocolated horse blood (Table 3); assay type: cell-based; details: Bacillus subtilis, 6633, 18 h
Give measured MIC for each item. Keep answers brief.
Quick reminder: number only, in µg/mL, skip the unit.

Task: Let me know recorded MIC for C/C(=C\C(=O)OCc1cc([N+](=O)[O-])cc([N+](=O)[O-])c1)CC1OCC(CC2OC2C(C)C(C)O)C(O)C1O (stereo not shown) [Example 6, 3,5-dinitrobenzyl monate A] , thanks.
Output: 0.5

Task: Annotate the compound C/C(=C\C(=O)OCc1ccc([N+](=O)[O-])cc1[N+](=O)[O-])CC1OCC(CC2OC2C(C)C(C)O)C(O)C1O (stereo not shown) [Example 10, 2,4-dinitrobenzyl monate A] with its measured MIC.
Output: 0.25

Task: Tell me its MIC given C/C(=C\C(=O)OC(C)c1cccc([N+](=O)[O-])c1)CC1OCC(CC2OC2C(C)C(C)O)C(O)C1O (stereo not shown) [Example 3, 1-(m-nitrophenyl)ethyl monate A] as the entry.
Output: 1

Task: Retrieve MIC measured for C/C(=C\C(=O)OCc1cc([N+](=O)[O-])cc([N+](=O)[O-])c1C)CC1OCC(CC2OC2C(C)C(C)O)C(O)C1O (stereo not shown) [Example 7, 3,5-dinitro-2-methylbenzyl monate A] and print it.
Output: 1

Task: Dear colleague, please send me the reported MIC for C/C(=C\C(=O)OCc1ccc([N+](=O)[O-])cc1Cl)CC1OCC(CC2OC2C(C)C(C)O)C(O)C1O (stereo not shown) [Example 11, 2-chloro-4-nitrobenzyl monate A] when you can.
Output: 0.5

Task: Report MIC, nothing else, for this compound: C/C(=C\C(=O)OCc1ccc([N+](=O)[O-])c([N+](=O)[O-])c1)CC1OCC(CC2OC2C(C)C(C)O)C(O)C1O (stereo not shown) [Example 9, 3,4-dinitrobenzyl monate A]
Output: 0.5

Task: For the compound C/C(=C\C(=O)OCc1ccccc1[N+](=O)[O-])CC1OCC(CC2OC2C(C)C(C)O)C(O)C1O (stereo not shown) [C, O--nitrobenzyl monate A, reference compound] , report MIC.
Output: 2.5
